Quick list: Classification per entry.
- testedTarget: PDZ protein (GST-PDZ fusion) (Homo sapiens, UniProt Q5TCQ9)
- Construct: made in house; host or cells: E. coli (DH5alpha, BL21 or JM109)
- Sequence (Q5TCQ9 1-1481): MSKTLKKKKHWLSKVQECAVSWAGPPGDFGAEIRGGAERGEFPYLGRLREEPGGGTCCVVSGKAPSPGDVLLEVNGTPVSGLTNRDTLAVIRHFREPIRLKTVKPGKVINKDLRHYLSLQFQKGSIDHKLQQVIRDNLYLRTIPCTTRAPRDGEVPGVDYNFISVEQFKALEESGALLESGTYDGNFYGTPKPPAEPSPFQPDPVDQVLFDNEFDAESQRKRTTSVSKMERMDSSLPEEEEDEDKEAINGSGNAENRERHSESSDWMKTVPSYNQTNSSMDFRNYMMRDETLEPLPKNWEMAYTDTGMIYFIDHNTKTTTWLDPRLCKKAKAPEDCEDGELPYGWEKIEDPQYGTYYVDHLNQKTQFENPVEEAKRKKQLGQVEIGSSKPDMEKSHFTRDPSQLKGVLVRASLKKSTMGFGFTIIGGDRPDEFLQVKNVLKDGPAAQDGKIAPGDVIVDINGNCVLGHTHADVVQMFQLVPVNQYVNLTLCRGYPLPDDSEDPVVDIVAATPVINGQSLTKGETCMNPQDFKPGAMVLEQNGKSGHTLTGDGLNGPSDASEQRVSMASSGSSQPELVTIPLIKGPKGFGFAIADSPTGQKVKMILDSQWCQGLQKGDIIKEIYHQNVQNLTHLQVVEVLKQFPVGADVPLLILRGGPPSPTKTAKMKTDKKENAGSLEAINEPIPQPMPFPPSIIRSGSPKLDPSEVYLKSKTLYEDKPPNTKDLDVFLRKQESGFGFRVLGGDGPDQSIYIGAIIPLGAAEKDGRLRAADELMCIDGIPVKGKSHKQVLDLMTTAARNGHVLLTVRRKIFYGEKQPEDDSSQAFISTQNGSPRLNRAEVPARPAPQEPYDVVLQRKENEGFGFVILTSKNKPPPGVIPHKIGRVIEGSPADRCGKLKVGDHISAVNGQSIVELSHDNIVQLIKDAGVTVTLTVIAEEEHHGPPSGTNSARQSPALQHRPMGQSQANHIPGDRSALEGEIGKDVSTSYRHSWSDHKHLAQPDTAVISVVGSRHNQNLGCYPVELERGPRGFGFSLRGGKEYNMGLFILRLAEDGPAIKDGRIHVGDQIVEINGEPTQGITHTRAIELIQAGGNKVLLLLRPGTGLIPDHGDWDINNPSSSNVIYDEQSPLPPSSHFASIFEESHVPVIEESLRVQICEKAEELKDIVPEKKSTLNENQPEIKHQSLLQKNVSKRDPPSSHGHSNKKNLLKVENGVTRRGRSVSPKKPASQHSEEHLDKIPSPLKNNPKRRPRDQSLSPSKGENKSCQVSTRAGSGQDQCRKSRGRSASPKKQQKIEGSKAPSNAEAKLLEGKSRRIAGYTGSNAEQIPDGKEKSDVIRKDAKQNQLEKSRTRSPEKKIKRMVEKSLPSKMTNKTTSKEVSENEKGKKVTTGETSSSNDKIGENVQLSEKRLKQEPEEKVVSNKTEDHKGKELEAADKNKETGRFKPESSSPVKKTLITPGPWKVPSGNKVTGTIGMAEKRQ
- protocolDescription: G' assay (10 uM PL peptide), results of TABLE 7 and TABLE 12
- Type: binding
- conditionNotes: PDZ KIAA1634, PDZ Domain 1
Ends that are not written are not given here. * marks the point of attachment. Biotin = O=C1N[C@H]2[C@H](CS[C@H]2CCCCC(=O)*)N1
parameterMeasured: Classification

>>> reading("ARHRVTSYTSSSVNVSSNL (Biotin-ARHRVTSYTSSSVNVSSNL) [IL-8RB]")
"1 (A450 nm 0-1)"
>>> reading("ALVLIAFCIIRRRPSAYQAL (Biotin-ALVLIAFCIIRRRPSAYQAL) [CD68]")
"2 (A450 nm 1-2)"
>>> reading("APC—adenomatous polyposis coli protein (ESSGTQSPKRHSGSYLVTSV)")
"1 (A450 nm 0-1)"
>>> reading("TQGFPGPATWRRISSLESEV")
"5 (A450 nm of 4 more than 2× repeated)"
>>> reading("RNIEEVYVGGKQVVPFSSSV (Biotin-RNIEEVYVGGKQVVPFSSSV) [Nedasin (s-form)]")
"1 (A450 nm 0-1)"
>>> reading("GGGGGSGGGGGSGIESVKI [GLUR2 (glutamate receptor 2-modified)]")
"4 (A450 nm 3-4)"
>>> reading("VDPNSPAAKKKYVSYNNLVI [GLUR7 (metabotropic glutamate receptor)]")
"1 (A450 nm 0-1)"
>>> reading("CKR5_HUMAN (ERASSVYTRSTGEQEISVGL)")
"1 (A450 nm 0-1)"
>>> reading("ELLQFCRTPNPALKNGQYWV (Biotin-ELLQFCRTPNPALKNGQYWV)")
"5 (A450 nm of 4 more than 2× repeated)"
>>> reading("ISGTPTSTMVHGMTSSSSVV (Biotin-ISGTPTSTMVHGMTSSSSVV) [Clasp-2]")
"1 (A450 nm 0-1)"
>>> reading("SSPDSSYQGKGFVMSRAMYV (Biotin-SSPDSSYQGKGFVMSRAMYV) [Nectin 2]")
"1 (A450 nm 0-1)"
>>> reading("PGQPPKVKSEFNSYSLTGYV (Biotin-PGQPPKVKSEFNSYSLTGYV) [claudin 2]")
"1 (A450 nm 0-1)"
>>> reading("GGEDFKTTNPSKQFDKNAYV (Biotin-GGEDFKTTNPSKQFDKNAYV) [claudin 10]")
"1 (A450 nm 0-1)"
